Each record here notes measured pIC50.
# Test system: HepG2
# METHOD SUMMARY: Cytotoxicity against human HepG2 cells incubated for 72 hrs by MTT assay
# Assay type: functional, cell-based
# CONDITION INFO: HepG2, 72 h
Quick note: pIC50 values are minus log10 of concentrations in mol/L.

Observe how each entry below is paired with its result.
Which pIC50 is reported for this molecule? CC[C@@]1(O)C(=O)OCc2c1cc1n(c2=O)Cc2c-1nc1cc3c(cc1c2-c1ccc(C)c(F)c1)OCO3 7.43

Please look up its pIC50: CCOc1ccc(-c2c3c(nc4cc5c(cc24)OCO5)-c2cc4c(c(=O)n2C3)COC(=O)[C@]4(O)CC)cc1F 6.69

If you can, please state the reported pIC50 value of CC[C@@]1(O)C(=O)OCc2c1cc1n(c2=O)Cc2c-1nc1cc3c(cc1c2-c1cccc(F)c1)OCO3 . 6.81

May I ask what pIC50 has been recorded for CC[C@@]1(O)C(=O)OCc2c1cc1n(c2=O)Cc2c-1nc1cc3c(cc1c2-c1ccc(F)cc1)OCO3 ? 7.33

What does the data say about its pIC50? Entry: CCc1c2c(nc3ccc(O)cc13)-c1cc3c(c(=O)n1C2)COC(=O)[C@]3(O)CC [7-ETHYL-10-HYDROXYCAMPTOTHECIN] 6.57

More entries:
Given CC[C@@]1(O)C(=O)OCc2c1cc1n(c2=O)Cc2c-1nc1cc3c(cc1c2-c1cccc(OC(F)(F)F)c1)OCO3 , state its recorded pIC50. 7.77

Request the reported pIC50 associated with CC[C@@]1(O)C(=O)OCc2c1cc1n(c2=O)Cc2c-1nc1cc3c(cc1c2-c1cc(F)cc(OC)c1)OCO3 7.31

pIC50 lookup needed for CC[C@@]1(O)C(=O)OCc2c1cc1n(c2=O)Cc2c-1nc1cc3c(cc1c2-c1cc(F)cc(F)c1)OCO3 , thanks. 7.38

Endpoint output: pIC50 of CC[C@@]1(O)C(=O)OCc2c1cc1n(c2=O)Cc2c-1nc1cc3c(cc1c2-c1cccc(C(F)(F)F)c1)OCO3 . Value? 7.46

Fill in the blank: the reported pIC50 of CC[C@@]1(O)C(=O)OCc2c1cc1n(c2=O)Cc2c-1nc1cc3c(cc1c2-c1ccc(F)c(F)c1)OCO3 is ____. 7.30

Name the recorded pIC50 for CC[C@@]1(O)C(=O)OCc2c1cc1n(c2=O)Cc2cc3cc4c(cc3nc2-1)OCO4 . 7.16

// query pIC50 value for entry CC[C@@]1(O)C(=O)OCc2c1cc1n(c2=O)Cc2c-1nc1cc3c(cc1c2-c1cc(C)cc(F)c1)OCO3 7.25

# get_value(readout='pIC50', item= CC[C@@]1(O)C(=O)OCc2c1cc1n(c2=O)Cc2c-1nc1cc3c(cc1c2-c1ccc(OC)c(F)c1)OCO3 ) 6.76

Query (molecule): CC[C@@]1(O)C(=O)OCc2c1cc1n(c2=O)Cc2c-1nc1cc3c(cc1c2-c1ccc(F)c(C)c1)OCO3 ; field requested: pIC50 7.44

Give the measured pIC50 of CC[C@@]1(O)C(=O)OCc2c1cc1n(c2=O)Cc2c-1nc1cc3c(cc1c2-c1ccc(OC(F)(F)F)cc1)OCO3 . 6.64
